target: T1, human ROR1 (Receptor Tyrosine Kinase-Like Orphan Receptor 1) on the cell surface (human, UniProt Q01973 30-937); experiment: flow cytometry, LS174T cells expressing human ROR1 (low density)
T1 construct: whole, on cells; engineered into B16-F10 (high density) and LS174T (low density) cells; also called B16-F10-ROR1-H; LS174T-ROR1-L
T1 sequence (Q01973 30-937): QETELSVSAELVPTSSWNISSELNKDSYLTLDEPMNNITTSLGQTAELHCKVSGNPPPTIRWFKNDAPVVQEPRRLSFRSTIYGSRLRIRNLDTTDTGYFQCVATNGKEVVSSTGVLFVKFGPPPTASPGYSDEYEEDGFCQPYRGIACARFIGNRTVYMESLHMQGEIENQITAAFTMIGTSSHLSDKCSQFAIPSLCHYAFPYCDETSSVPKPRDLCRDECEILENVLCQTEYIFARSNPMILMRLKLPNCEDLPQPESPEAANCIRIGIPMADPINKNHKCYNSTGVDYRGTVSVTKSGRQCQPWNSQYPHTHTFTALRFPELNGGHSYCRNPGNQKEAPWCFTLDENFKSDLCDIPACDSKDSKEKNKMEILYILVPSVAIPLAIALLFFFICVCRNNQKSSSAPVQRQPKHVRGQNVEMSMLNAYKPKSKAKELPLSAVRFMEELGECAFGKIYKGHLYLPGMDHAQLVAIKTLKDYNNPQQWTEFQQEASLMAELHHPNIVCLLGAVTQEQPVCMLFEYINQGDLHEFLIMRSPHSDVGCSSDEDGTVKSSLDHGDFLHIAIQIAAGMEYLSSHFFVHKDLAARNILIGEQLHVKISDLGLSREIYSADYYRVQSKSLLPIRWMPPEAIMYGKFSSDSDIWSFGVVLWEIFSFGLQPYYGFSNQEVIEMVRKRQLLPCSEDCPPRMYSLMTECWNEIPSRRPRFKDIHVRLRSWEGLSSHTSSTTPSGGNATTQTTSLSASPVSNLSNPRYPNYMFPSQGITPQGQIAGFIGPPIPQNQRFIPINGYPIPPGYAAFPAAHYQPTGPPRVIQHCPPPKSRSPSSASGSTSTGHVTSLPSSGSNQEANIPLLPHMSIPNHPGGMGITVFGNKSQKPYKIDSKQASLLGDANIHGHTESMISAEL
Below is a list of entries, each paired with its recorded MFI value.

| BINDER | MFI |
| --- | --- |
| F221581021 (h5A1-BI-021 Fc) (Fc fusion, VHH-Fc format; also called F22158121; not shown: Fc of the VHH-Fc format) EVQLLESGGGLVQPGGSLRLSCAASGYTNRIKCMGWFRQAPGKEREEVASISTGTGNAYYADSVKGRFTISQDKSKNTLYLQMNSLKAEDTAVYYCAADVRPHGTTCHYNKRGQGTLVTVSS | 35800 |
| F22158101 (h5A1-BI-001 Fc) (Fc fusion, VHH-Fc format; not shown: Fc of the VHH-Fc format) EVQLLESGGGLVQPGGSLRLSCAASGYTNRIKCMGWFRQAPGKEREEVASISTGTGNTYYADSVKGRFTISQDKSKNTLYLQMNSLKAEDTAVYYCAADVRPDGFTCHYNSRGQGTLVTVSS | 19700 |
| F221581015 (h5A1-BI-015 Fc) (Fc fusion, VHH-Fc format; also called F22158115; not shown: Fc of the VHH-Fc format) EVQLLESGGGLVQPGGSLRLSCAASGYTNRIKCMGWFRQAPGKEREEVASISTGTGNTYYADSVKGRFTISQDKSKNTLYLQMNSLKAEDTAVYYCAADVRPFGTTCHYNKRGQGTLVTVSS | 29300 |
| F22158102 (h5A1-BI-002 Fc) (Fc fusion, VHH-Fc format; not shown: Fc of the VHH-Fc format) EVQLLESGGGLVQPGGSLRLSCAASGYTNRIKCMGWFRQAPGKEREEVASISTGTGNTYYADSVKGRFTISQDKSKNTLYLQMNSLKAEDTAVYYCAADVRPDGTTCHYNKRGQGTLVTVSS | 20500 |
| F22158107 (h5A1-BI-007 Fc) (Fc fusion, VHH-Fc format; not shown: Fc of the VHH-Fc format) EVQLLESGGGLVQPGGSLRLSCAASGYTNRLKCMGWFRQAPGKEREEVASISTGTGNAYYADSVKGRFTISQDKSKNTLYLQMNSLKAEDTAVYYCAADVRPDGRTCHYNSRGQGTLVTVSS | 11500 |

FYI, the data here is from patent US20250313627A1.
